Test: In vivo pharmacokinetics, plasma concentration after p.o. dosing
Parameters: species or system Wistar rats
Conditions: male, Wistar, plasma, po; rat, 10 mg/kg p.o., 2.00 hours
Where a name gives a salt, the structure may show the parent alone.

{"molecule": "NC/C=C(\\F)CS(=O)(=O)c1ccccc1 [Compound 1, hydrochloride]", "concentration at 2 h": "134 ng/mL"}
{"molecule": "NC/C=C(\\F)CS(=O)(=O)c1cccc2cccnc12 [Compound 33, dihydrochloride]", "concentration at 2 h": "246 ng/mL"}

###

Target: LOXL1 (Homo sapiens (Human))
Sequence (Q08397 96-574, species assumed): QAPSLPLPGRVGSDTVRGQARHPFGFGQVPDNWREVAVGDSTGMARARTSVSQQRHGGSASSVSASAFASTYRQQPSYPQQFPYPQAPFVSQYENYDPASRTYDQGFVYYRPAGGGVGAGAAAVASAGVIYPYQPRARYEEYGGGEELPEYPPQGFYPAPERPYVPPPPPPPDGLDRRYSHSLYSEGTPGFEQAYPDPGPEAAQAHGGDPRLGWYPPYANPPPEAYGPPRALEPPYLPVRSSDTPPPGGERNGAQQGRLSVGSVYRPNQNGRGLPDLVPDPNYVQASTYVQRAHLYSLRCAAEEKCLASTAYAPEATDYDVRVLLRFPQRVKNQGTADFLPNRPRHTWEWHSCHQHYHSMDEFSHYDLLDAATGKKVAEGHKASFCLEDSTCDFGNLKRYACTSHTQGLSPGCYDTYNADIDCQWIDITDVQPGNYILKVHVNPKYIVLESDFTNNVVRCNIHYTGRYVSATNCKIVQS
Experiment: Jump dilution experiment, sustained inhibition of LOXL1;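 also: 30× IC50 used only where needed so inhibitor exceeds enzyme concentration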
Type: biochemical
Settings: jump dilution after 40 min at 37 °C with 10× or 30× IC50; vs non-inhibited controls
Where a name gives a salt, the structure may show the parent alone.
Outcome label depends on LOXL1 - Recovery of activity. (%) relative to 4%: at/above gives 1.0, below gives 0.0.

{"compound": "CC(C)NS(=O)(=O)c1ccc(COc2ccccc2S(=O)(=O)C/C(F)=C/CN)cc1 [Compound 14, hydrochloride]", "cat": 0.0}
{"compound": "NC/C=C(\\F)CS(=O)(=O)c1cccc(C(=O)NC23CC4CC(CC(C4)C2)C3)c1 [Compound 13, hydrochloride]", "cat": 0.0}
{"compound": "NC/C=C(\\F)CS(=O)(=O)c1ccccn1 [Compound 30, dihydrochloride]", "cat": 0.0}
{"compound": "NC/C=C(\\F)CS(=O)(=O)c1ccccc1OCc1ccc(S(N)(=O)=O)cc1 [Compound 8, hydrochloride]", "cat": 1.0}
{"compound": "NC/C=C(\\F)CS(=O)(=O)c1ccccc1OCc1ccccc1 [Compound 7, hydrochloride]", "cat": 0.0}
{"compound": "CN(C)S(=O)(=O)c1ccc(COc2cccc(S(=O)(=O)C/C(F)=C/CN)c2)cc1 [Compound 9, hydrochloride]", "cat": 1.0}
{"compound": "NC/C=C(\\F)CS(=O)(=O)c1ccc(C(=O)NC23CC4CC(CC(C4)C2)C3)cc1 [Compound 4, hydrochloride]", "cat": 1.0}
{"compound": "NC/C=C(\\F)CS(=O)(=O)c1ccccc1Cl [Compound 19, hydrochloride]", "cat": 1.0}
